The reported numbers originate from ChEMBL document CHEMBL1154682.

molecular target: UniProt Q920L5; assay: Inhibition of ELOVL6 in mouse H2.35 cells assessed as elongation index; format: cell-based
Sequence (Q920L5 whole entry): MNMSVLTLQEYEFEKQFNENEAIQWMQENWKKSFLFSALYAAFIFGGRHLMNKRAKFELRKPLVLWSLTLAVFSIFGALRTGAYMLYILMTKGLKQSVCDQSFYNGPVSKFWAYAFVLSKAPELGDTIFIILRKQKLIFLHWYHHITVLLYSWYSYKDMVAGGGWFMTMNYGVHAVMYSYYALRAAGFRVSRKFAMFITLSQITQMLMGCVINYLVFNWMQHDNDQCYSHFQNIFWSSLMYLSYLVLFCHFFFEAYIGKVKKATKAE
pIC50: −log10 of the molar value.
Metric Name: pIC50

{"Molecule": "O=C1Nc2ccc(-c3ccn[nH]3)cc2[C@](CNC(=O)c2ccc(F)cc2)(C(F)(F)F)O1", "pIC50": 8.44}

A: O=C(NCC1(C(F)(F)F)OC(=O)Nc2ccc(Cl)cc21)Nc1ccc(F)cc1 (single isomer, unassigned; (-))
B: O=C1Nc2ccc(-n3cccn3)cc2C(CNC(=O)c2ccc(F)cc2)(C(F)(F)F)O1 (single isomer, unassigned; (+))
Task item: // max by pIC50 over [ A , B ] # answer = label of selected item
Reply: B
(B: 7.24, A: 6.42)
